Assay system: rh-AChE (Homo sapiens)
Sequence (P22303 32-614): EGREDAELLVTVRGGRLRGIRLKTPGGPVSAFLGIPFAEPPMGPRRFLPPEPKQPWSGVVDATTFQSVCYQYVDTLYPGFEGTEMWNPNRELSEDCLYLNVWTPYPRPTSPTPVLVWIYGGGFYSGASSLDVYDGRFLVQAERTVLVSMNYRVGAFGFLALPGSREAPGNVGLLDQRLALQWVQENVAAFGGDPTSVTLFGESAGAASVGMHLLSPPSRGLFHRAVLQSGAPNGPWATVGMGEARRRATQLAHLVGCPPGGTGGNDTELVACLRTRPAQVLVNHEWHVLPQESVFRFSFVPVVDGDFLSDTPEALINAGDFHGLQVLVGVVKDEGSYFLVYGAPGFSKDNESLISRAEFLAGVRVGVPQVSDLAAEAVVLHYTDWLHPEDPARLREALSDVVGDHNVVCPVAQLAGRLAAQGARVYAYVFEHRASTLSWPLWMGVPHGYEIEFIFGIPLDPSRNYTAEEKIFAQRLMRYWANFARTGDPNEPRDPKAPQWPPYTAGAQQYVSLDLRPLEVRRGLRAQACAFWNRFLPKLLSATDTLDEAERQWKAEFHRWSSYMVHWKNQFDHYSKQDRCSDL
Assay protocol: biochemical
Condition summary: read-out: IC50 rh-AChE
Listed here are compounds together with their documented IC50.
Write the numeric value and append its unit.

Solved entries (count: 2):
[[record]]
compound = "CCOC(=O)C(CCC1=CC2Cc3nc4cc(Cl)ccc4c(N)c3C(C1)C2)C(=O)OCC (stereo not drawn)"
assay_system = "rh-AChE (Homo sapiens)"
quantity_name = "IC50"
result = "6.09 nM"

[[record]]
compound = "COC(=O)CCCC1=CC2Cc3nc4cc(Cl)ccc4c(N)c3C(C1)C2 (stereo not drawn)"
assay_system = "rh-AChE (Homo sapiens)"
quantity_name = "IC50"
result = "14.6 nM"


Moving on to the next compound.
Form field: reported IC50 of CC(C)(C)OC(=O)ON(CCC1=CC2Cc3nc4cc(Cl)ccc4c(N)c3C(C1)C2)C(=O)OC(C)(C)C (stereo not drawn) 14.8 nM
